Target: RNase H activity of HIV reverse transcriptase (Human immunodeficiency virus type 1 group M subtype B)
Construct: 2.5 nM of the p51/p66 RT heterodimer in the assay; made in house
Assay: Fluorescence (FRET)-based RNase H assay of HIV reverse transcriptase
Assay type: biochemical, HIV-1
Details: 10 μM inhibitor concentration; activity in presence / in absence of analog x 100
parameterMeasured: Residual activity (%) RNase H
Report the figure in % without appending any unit label.

*Q* State the recorded Residual activity (%) RNase H for this entry: Cc1ccc2nc3c(c([Si](C)(C)C(C)(C)C)c2c1)Cn1c-3cc(C(O)CCC2CCCCC2)c(C)c1=O (centres unmarked)
*A* 109

*Q* State the recorded Residual activity (%) RNase H for this entry: Cc1c(C(=O)CCC2CCCCC2)cc2n(c1=O)Cc1c-2nc2ccccc2c1[Si](C)(C)C
*A* 75

*Q* State the recorded Residual activity (%) RNase H for this entry: CCC(O)c1cc2n(c(=O)c1C)Cc1c-2nc2ccc(C)cc2c1-c1ccccc1 (centres unmarked)
*A* 96

*Q* State the recorded Residual activity (%) RNase H for this entry: COc1ccc2nc3c(c([Si](C)(C)C(C)(C)C)c2c1)Cn1c-3cc(C(=O)CCC2CCCCC2)c(C)c1=O
*A* 83

*Q* State the recorded Residual activity (%) RNase H for this entry: Cc1c(C(O)Cc2ccccc2)cc2n(c1=O)Cc1c-2nc2ccccc2c1-c1ccccc1 (centres unmarked)
*A* 99

*Q* State the recorded Residual activity (%) RNase H for this entry: CCCCCCc1c2c(nc3ccc(F)cc13)-c1cc(C(O)Cc3ccccc3)c(C)c(=O)n1C2 (centres unmarked)
*A* 84

*Q* State the recorded Residual activity (%) RNase H for this entry: CCCCCCc1c2c(nc3ccc(F)cc13)-c1cc(C(O)CCC3CCCCC3)c(C)c(=O)n1C2 (centres unmarked)
*A* 112

*Q* State the recorded Residual activity (%) RNase H for this entry: COc1ccc2nc3c(c([Si](C)(C)C(C)(C)C)c2c1)Cn1c-3cc(C(O)C(C)(C)C)c(C)c1=O (centres unmarked)
*A* 91

*Q* State the recorded Residual activity (%) RNase H for this entry: COc1ccc2nc3c(c(-c4ccccc4)c2c1)Cn1c-3cc(C(O)C(C)(C)C)c(C)c1=O (centres unmarked)
*A* 70

*Q* State the recorded Residual activity (%) RNase H for this entry: Cc1c(C(O)CCC2CCCCC2)cc2n(c1=O)Cc1c-2nc2ccc(F)cc2c1-c1ccccc1 (centres unmarked)
*A* 99

*Q* State the recorded Residual activity (%) RNase H for this entry: COc1ccc2nc3c(c([Si](C)(C)C)c2c1)Cn1c-3cc(C(=O)CCC2CCCCC2)c(C)c1=O
*A* 92

*Q* State the recorded Residual activity (%) RNase H for this entry: Cc1ccc2nc3c(c([Si](C)(C)C(C)(C)C)c2c1)Cn1c-3cc(C(=O)CCC2CCCCC2)c(C)c1=O
*A* 96

*Q* State the recorded Residual activity (%) RNase H for this entry: Cc1ccc2nc3c(c([Si](C)(C)C)c2c1)Cn1c-3cc(C(O)Cc2ccccc2)c(C)c1=O (centres unmarked)
*A* 93

*Q* State the recorded Residual activity (%) RNase H for this entry: Cc1ccc2nc3c(c(-c4ccccc4)c2c1)Cn1c-3cc(C(O)Cc2ccccc2)c(C)c1=O (centres unmarked)
*A* 101

*Q* State the recorded Residual activity (%) RNase H for this entry: COc1ccc2nc3c(c(-c4ccccc4)c2c1)Cn1c-3cc(C(=O)Cc2ccccc2)c(C)c1=O
*A* 88

*Q* State the recorded Residual activity (%) RNase H for this entry: Cc1c(C(=O)CCC2CCCCC2)cc2n(c1=O)Cc1c-2nc2ccccc2c1-c1ccccc1
*A* 73

*Q* State the recorded Residual activity (%) RNase H for this entry: CCC(=O)c1cc2n(c(=O)c1C)Cc1c-2nc2ccc(F)cc2c1[Si](C)(C)C
*A* 89

*Q* State the recorded Residual activity (%) RNase H for this entry: CCCCCCc1c2c(nc3ccc(OC)cc13)-c1cc(C(=O)CC)c(C)c(=O)n1C2
*A* 84

*Q* State the recorded Residual activity (%) RNase H for this entry: CCCCCCc1c2c(nc3ccccc13)-c1cc(C(=O)Cc3ccccc3)c(C)c(=O)n1C2
*A* 92

*Q* State the recorded Residual activity (%) RNase H for this entry: CCC(=O)c1cc2n(c(=O)c1C)Cc1c-2nc2ccc(OC)cc2c1[Si](C)(C)C
*A* 86

*Q* State the recorded Residual activity (%) RNase H for this entry: CCCCCCc1c2c(nc3ccc(OC)cc13)-c1cc(C(O)C(C)(C)C)c(C)c(=O)n1C2 (centres unmarked)
*A* 67

*Q* State the recorded Residual activity (%) RNase H for this entry: COc1ccc2nc3c(c([Si](C)(C)C(C)(C)C)c2c1)Cn1c-3cc(C(O)Cc2ccccc2)c(C)c1=O (centres unmarked)
*A* 76

*Q* State the recorded Residual activity (%) RNase H for this entry: Cc1c(C(=O)CCC2CCCCC2)cc2n(c1=O)Cc1c-2nc2ccccc2c1[Si](C)(C)C(C)(C)C
*A* 102

*Q* State the recorded Residual activity (%) RNase H for this entry: CCc1c2c(nc3ccccc13)-c1cc(C(O)CC)c(C)c(=O)n1C2 (centres unmarked)
*A* 74

*Q* State the recorded Residual activity (%) RNase H for this entry: CCCCCCc1c2c(nc3ccc(OC)cc13)-c1cc(C(O)Cc3ccccc3)c(C)c(=O)n1C2 (centres unmarked)
*A* 82

*Q* State the recorded Residual activity (%) RNase H for this entry: CCC(=O)c1cc2n(c(=O)c1C)Cc1c-2nc2ccccc2c1[Si](C)(C)C
*A* 103

*Q* State the recorded Residual activity (%) RNase H for this entry: CCC(=O)c1cc2n(c(=O)c1C)Cc1c-2nc2ccc(OC)cc2c1-c1ccccc1
*A* 104

*Q* State the recorded Residual activity (%) RNase H for this entry: CCCCCCc1c2c(nc3ccccc13)-c1cc(C(O)CCC3CCCCC3)c(C)c(=O)n1C2 (centres unmarked)
*A* 89

*Q* State the recorded Residual activity (%) RNase H for this entry: CCCCCCc1c2c(nc3ccc(F)cc13)-c1cc(C(=O)CCC3CCCCC3)c(C)c(=O)n1C2
*A* 95
